Values compiled from paper PMC9182012.

molecular target: bovine serum albumin (BSA) (Bos taurus); test: Protein interaction by fluorescence quenching, Stern–Volmer binding constant; conditions: slope of Stern–Volmer plot (Io/I vs macrocycle concentration); 10 µM BSA in phosphate buffer pH 7.4, 2–100 µM macrocycle from 2 mM DMSO stock, 25 °C, excitation 280 nm, 3 min equilibration
metric_name: Binding Constant, BSA (M⁻¹)

(1) CC(C)N1CCOCc2cn(nn2)CCNCCn2cc(nn2)C1
(2) CCN(CC)C(=O)CN1CCOCc2cn(nn2)CCNCCn2cc(nn2)C1
(3) c1ccc(CN2CCN(Cc3ccccc3)Cc3cn(nn3)CCNCCn3cc(nn3)C2)cc1
(4) CN1CCN(C)Cc2cn(nn2)CCNCCn2cc(nn2)C1
Input: With regard to Binding Constant, BSA, arrange the entries in ascending order, please. Labels, requested order.
Output: 3, 4, 1, 2
(3: 800 M⁻¹, 4: 1400 M⁻¹, 1: 4000 M⁻¹, 2: 9100 M⁻¹)

(1) CCCN1CCOCc2cn(nn2)CCNCCn2cc(nn2)C1
(2) c1c2nnn1CCNCCn1cc(nn1)COCCCCCCCCCCCCOC2
Input: Which has the smaller recorded Binding Constant, BSA, 1 or 2 ? Kindly give the label for the entry you pick.
Output: 1
(1: 4600 M⁻¹, 2: 27100 M⁻¹)

----------
target: bovine serum albumin (BSA) (Bos taurus, UniProt P02769); assay: Protein interaction by fluorescence quenching, Stern–Volmer binding constant; conditions: fluorescence quenching, 10 µM BSA, pH 7.4, 25 °C
Sequence (P02769 25-607): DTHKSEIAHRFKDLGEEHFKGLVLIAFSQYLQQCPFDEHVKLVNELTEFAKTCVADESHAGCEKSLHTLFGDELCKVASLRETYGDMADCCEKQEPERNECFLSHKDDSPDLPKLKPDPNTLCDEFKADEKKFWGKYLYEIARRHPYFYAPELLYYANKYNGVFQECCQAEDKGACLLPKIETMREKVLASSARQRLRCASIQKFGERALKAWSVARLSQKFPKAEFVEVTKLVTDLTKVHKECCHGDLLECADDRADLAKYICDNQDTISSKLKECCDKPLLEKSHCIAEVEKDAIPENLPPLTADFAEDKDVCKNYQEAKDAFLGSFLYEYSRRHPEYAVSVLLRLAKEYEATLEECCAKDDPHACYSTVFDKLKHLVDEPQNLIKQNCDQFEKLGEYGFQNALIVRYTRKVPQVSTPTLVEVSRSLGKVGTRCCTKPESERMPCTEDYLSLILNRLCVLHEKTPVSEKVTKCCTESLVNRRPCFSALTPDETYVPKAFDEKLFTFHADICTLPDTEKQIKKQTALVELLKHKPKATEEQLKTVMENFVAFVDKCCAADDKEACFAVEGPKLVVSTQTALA
metric_name: Extent of binding with BSA, in words

# example entries with known answers
[[record]]
molecule_smiles = "c1ccc(CN2CCN(Cc3ccccc3)Cc3cn(nn3)CCNCCn3cc(nn3)C2)cc1"
value_reported = "negligible binding"

[[record]]
molecule_smiles = "c1c2nnn1CCNCCn1cc(nn1)CN(C1CCCCC1)CCOC2"
value_reported = "moderate binding"

[[record]]
molecule_smiles = "CCN(CC)C(=O)CN1CCOCc2cn(nn2)CCNCCn2cc(nn2)C1"
value_reported = "moderate binding"

[[record]]
molecule_smiles = "CCCN1CCOCc2cn(nn2)CCNCCn2cc(nn2)C1"
value_reported = "moderate binding"

[[record]]
molecule_smiles = "CN1CCN(C)Cc2cn(nn2)CCNCCn2cc(nn2)C1"
value_reported = "negligible binding"


Now consider the entry below.
Input: Give me measured Extent of binding with BSA, in words, please, for this molecule: CC(C)N1CCOCc2cn(nn2)CCNCCn2cc(nn2)C1
Output: moderate binding

----------
target: human serum albumin (HSA) (Homo sapiens, UniProt P02768); test: Protein interaction by fluorescence quenching, Stern–Volmer binding constant; details: slope of Stern–Volmer plot (Io/I vs macrocycle concentration); 10 µM HSA in phosphate buffer pH 7.4, 2–100 µM macrocycle from 2 mM DMSO stock, 25 °C, excitation 280 nm, 3 min equilibration
Sequence (P02768 25-609): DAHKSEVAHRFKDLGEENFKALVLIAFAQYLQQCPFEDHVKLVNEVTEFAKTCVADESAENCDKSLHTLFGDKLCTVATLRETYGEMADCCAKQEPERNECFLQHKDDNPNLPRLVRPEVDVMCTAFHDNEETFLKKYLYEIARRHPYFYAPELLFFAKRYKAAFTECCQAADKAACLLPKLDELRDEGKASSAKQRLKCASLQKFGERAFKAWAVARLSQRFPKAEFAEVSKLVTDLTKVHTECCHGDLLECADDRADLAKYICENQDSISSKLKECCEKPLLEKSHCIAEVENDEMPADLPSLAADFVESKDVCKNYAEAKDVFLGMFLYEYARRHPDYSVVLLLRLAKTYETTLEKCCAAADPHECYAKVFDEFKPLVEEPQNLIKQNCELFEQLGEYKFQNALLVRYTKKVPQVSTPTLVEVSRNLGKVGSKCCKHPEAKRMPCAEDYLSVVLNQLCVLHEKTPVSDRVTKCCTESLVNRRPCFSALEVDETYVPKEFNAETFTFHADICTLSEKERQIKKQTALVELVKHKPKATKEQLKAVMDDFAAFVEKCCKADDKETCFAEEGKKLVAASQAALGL
metric_name: Binding Constant, HSA (M⁻¹)

[[record]]
molecule_smiles = "CCCN1CCOCc2cn(nn2)CCNCCn2cc(nn2)C1"
quantity_unit = "M⁻¹"
value_reported = 4200


(P) CN1CCN(C)Cc2cn(nn2)CCNCCn2cc(nn2)C1
(Q) CCN(CC)C(=O)CN1CCOCc2cn(nn2)CCNCCn2cc(nn2)C1
Input: Between P and Q , which one has the lower reported Binding Constant, HSA value? API: response body contains the label of the selected item.
Output: P
(P: 3200 M⁻¹, Q: 8400 M⁻¹)

(1) CC(C)N1CCOCc2cn(nn2)CCNCCn2cc(nn2)C1
(2) c1c2nnn1CCNCCn1cc(nn1)COCCCCCCCCCCCCOC2
(3) c1ccc(CN2CCN(Cc3ccccc3)Cc3cn(nn3)CCNCCn3cc(nn3)C2)cc1
Input: Sort entries by Binding Constant, HSA from minimum to maximum value. Thanks in advance for listing the labels in the requested order.
Output: 3, 1, 2
